System: BT-549
assay_summary: drug sensitivity score (DSS), CellTox Green (DSS (AUC-based score)); higher = stronger drug effect (viability inhibition or cytotoxicity); extreme values may be limits of the assay
experimental_setup: incubation time: 72 h
Would you mind telling me the reported drug sensitivity score of each entry?
Keep it simple and answer with nothing but the number.

Exercise: # lookup: drug sensitivity score of `CN(N=O)C(=O)N[C@@H](C=O)[C@@H](O)[C@H](O)[C@H](O)CO`
Solution: 0

Exercise: Similarly, `C=C(c1ccc(C(=O)O)cc1)c1cc2c(cc1C)C(C)(C)CCC2(C)C` ?
Solution: 0

Exercise: Then what about the compound `Cn1c(CCCC(=O)O)nc2cc(N(CCCl)CCCl)ccc21` ?
Solution: 0

Exercise: Param item: O=C1CCC(N2C(=O)c3ccccc3C2=O)C(=O)N1 (centres undefined) [Thalidomide]
Solution: 0

Exercise: Next: `CCC1=C[C@@H]2CN(C1)Cc1c([nH]c3ccccc13)[C@@](C(=O)OC)(c1cc3c(cc1OC)N(C)[C@H]1[C@@](O)(C(=O)OC)[C@H](OC(C)=O)[C@]4(CC)C=CCN5CC[C@]31[C@@H]54)C2`
Solution: 4.21

Exercise: What do you get for `CS(=O)(=O)c1ccc(C2=C(c3ccccc3)C(=O)OC2)cc1` ?
Solution: 0

Exercise: Same for `CC(C)Cn1cnc2c(N)nc3ccccc3c21`
Solution: 0.506

Exercise: Now give it for COc1cc([C@@H]2c3cc4c(cc3[C@@H](O[C@@H]3O[C@@H]5CO[C@@H](C)O[C@H]5[C@H](O)[C@H]3O)[C@H]3COC(=O)[C@H]23)OCO4)cc(OC)c1O [Etoposide] too.
Solution: 0

Exercise: `CO[C@H]1/C=C\C=C(/C)C(=O)NC2=CC(=O)C(NCCN(C)C)=C(C[C@@H](C)C[C@H](OC)[C@H](O)[C@@H](C)/C=C(\C)[C@@H]1OC(N)=O)C2=O` , same question.
Solution: 0

###

System: HCC1599
assay_summary: normalised response (% of control), CellTiter-Glo; higher = more viable cells (100 = DMSO, 0 = benzethonium chloride kill control)
experimental_setup: incubation time: 72 h
endpoint_name: normalised response (%)
Record the value in %, omitting the unit from your answer.

Exercise: What does the data say about its normalised response? Entry: Clc1ccc(Nc2nnc(Cc3ccncc3)c3ccccc23)cc1 [Vatalanib] (10000 nM)
Solution: 91.5

Exercise: Then CN[C@@H]1C[C@H]2O[C@@](C)([C@@H]1OC)n1c3ccccc3c3c4c(c5c6ccccc6n2c5c31)C(=O)N[C@H]4O [UCN-01] (10000 nM) ?
Solution: 13.7

Exercise: What do we get for CCC1(c2ccc(N)cc2)CCC(=O)NC1=O (centres undefined) [Aminoglutethimide] (10000 nM) ?
Solution: 108

Exercise: Then what about the compound Cc1ccc(-n2nc(C(C)(C)C)cc2NC(=O)Nc2ccc(OCCN3CCOCC3)c3ccccc23)cc1 [Doramapimod] (10000 nM) ?
Solution: 68.7

Exercise: Moving on to the next compound: C[C@]12CC[C@@H]3c4ccc(O)cc4C[C@@H](CCCCCCCCC[S+]([O-])CCCC(F)(F)C(F)(F)F)[C@H]3[C@@H]1CC[C@@H]2O (some centres undefined) [Fulvestrant] (1000 nM)
Solution: 103

Exercise: And then O=C(CCCCCCC(=O)Nc1ccc([C@H]2O[C@@H](CSc3nc(-c4ccccc4)c(-c4ccccc4)o3)C[C@@H](c3ccc(CO)cc3)O2)cc1)NO [Tubacin] (10000 nM) , what is it?
Solution: 13.7

Exercise: Item: Cc1ccc(C(=O)N(CCCN)[C@@H](c2oc3cc(Cl)ccc3c(=O)c2Cc2ccccc2)C(C)C)cc1 (100 nM)
Solution: 97.5

Exercise: Further, for CO[C@H]1/C=C\C=C(/C)C(=O)NC2=CC(=O)C(NCCN(C)C)=C(C[C@@H](C)C[C@H](OC)[C@H](O)[C@@H](C)/C=C(\C)[C@@H]1OC(N)=O)C2=O [Alvespimycin] (1000 nM) ?
Solution: 58.8

Exercise: Now consider CC(C)Cn1cnc2c(N)nc3ccccc3c21 [Imiquimod] (2500 nM) and answer again.
Solution: 94.9
